Source: ChEMBL document CHEMBL4270561

# method_notes: Resistance index, ratio of IC50 for human LoVo/DX cells to IC50 for human LoVo cells
# Format: functional
readout_name: Ratio IC50
Just the number, please, no unit after it.

Solved entries:
C#CCOC(=O)[C@H](CC)[C@H]1CC[C@H](C)[C@H]([C@@H](C)[C@H](O)[C@H](C)C(=O)[C@H](CC)[C@H]2O[C@]3(C=C[C@@H](OC(=O)NCC)[C@]4(CC[C@@](C)([C@H]5CC[C@](O)(CC)[C@H](C)O5)O4)O3)[C@H](C)C[C@@H]2C)O1 = 0.65
CCNC(=O)O[C@@H]1C=C[C@]2(O[C@H]([C@@H](CC)C(=O)[C@@H](C)[C@@H](O)[C@H](C)[C@@H]3O[C@@H]([C@@H](CC)C(=O)NCCc4ccc(F)cc4)CC[C@@H]3C)[C@@H](C)C[C@H]2C)O[C@@]12CC[C@@](C)([C@H]1CC[C@](O)(CC)[C@H](C)O1)O2 = 0.94
C#CCNC(=O)[C@H](CC)[C@H]1CC[C@H](C)[C@H]([C@@H](C)[C@H](O)[C@H](C)C(=O)[C@H](CC)[C@H]2O[C@]3(C=C[C@@H](OC(=O)OCC)[C@]4(CC[C@@](C)([C@H]5CC[C@](O)(CC)[C@H](C)O5)O4)O3)[C@H](C)C[C@@H]2C)O1 = 0.81

Now for the molecule whose Ratio IC50 we want.
Query: Returns the measured Ratio IC50 for the input molecule. Input: C#CCNC(=O)[C@H](CC)[C@H]1CC[C@H](C)[C@H]([C@@H](C)[C@H](O)[C@H](C)C(=O)[C@H](CC)[C@H]2O[C@]3(C=C[C@@H](O)[C@]4(CC[C@@](C)([C@H]5CC[C@](O)(CC)[C@H](C)O5)O4)O3)[C@H](C)C[C@@H]2C)O1
Response: 0.4

* * *

# method_notes: Cell cycle arrest in human ALL5 cells assessed as accumulation at sub-G1 phase at 5 times antiproliferative IC50 after 48 hrs by propidium iodide staining based flow cytometry (reference value: 7.8%)
# Type: functional
readout_name: Activity

C#CCOC(=O)[C@H](CC)[C@H]1CC[C@H](C)[C@H]([C@@H](C)[C@H](O)[C@H](C)C(=O)[C@H](CC)[C@H]2O[C@]3(C=C[C@@H](OC(=O)OCC)[C@]4(CC[C@@](C)([C@H]5CC[C@](O)(CC)[C@H](C)O5)O4)O3)[C@H](C)C[C@@H]2C)O1 = 10.6%
COc1cccc2c1C(=O)c1c(O)c3c(c(O)c1C2=O)C[C@@](O)(C(=O)CO)C[C@@H]3O[C@H]1C[C@H](N)[C@H](O)[C@H](C)O1 = 27.4%
C#CCOC(=O)[C@H](CC)[C@H]1CC[C@H](C)[C@H]([C@@H](C)[C@H](O)[C@H](C)C(=O)[C@H](CC)[C@H]2O[C@]3(C=C[C@@H](OC(=O)NCC)[C@]4(CC[C@@](C)([C@H]5CC[C@](O)(CC)[C@H](C)O5)O4)O3)[C@H](C)C[C@@H]2C)O1 = 19.6%

Now for the molecule whose Activity we want.
Query: Returns the measured Activity for the input molecule. Input: CCOC(=O)O[C@@H]1C=C[C@]2(O[C@H]([C@@H](CC)C(=O)[C@@H](C)[C@@H](O)[C@H](C)[C@@H]3O[C@@H]([C@@H](CC)C(=O)NCCc4ccc(F)cc4)CC[C@@H]3C)[C@@H](C)C[C@H]2C)O[C@@]12CC[C@@](C)([C@H]1CC[C@](O)(CC)[C@H](C)O1)O2
Response: 7.78%

* * *

A collection of molecules and their measured Activity
# method_notes: Cell cycle arrest in human ALL5 cells assessed as accumulation at sub-G1 phase at 5 times antiproliferative IC50 after 48 hrs by propidium iodide staining based flow cytometry (reference value: 7.8%)
# Format: functional
Express it in %; write the number only.

Solved entries:
C#CCNC(=O)[C@H](CC)[C@H]1CC[C@H](C)[C@H]([C@@H](C)[C@H](O)[C@H](C)C(=O)[C@H](CC)[C@H]2O[C@]3(C=C[C@@H](OC(C)=O)[C@]4(CC[C@@](C)([C@H]5CC[C@](O)(CC)[C@H](C)O5)O4)O3)[C@H](C)C[C@@H]2C)O1 = 34.3
CC[C@@H](C(=O)[C@@H](C)[C@@H](O)[C@H](C)[C@@H]1O[C@@H]([C@@H](CC)C(=O)NCCc2ccc(F)cc2)CC[C@@H]1C)[C@H]1O[C@]2(C=C[C@@H](OC(C)=O)[C@]3(CC[C@@](C)([C@H]4CC[C@](O)(CC)[C@H](C)O4)O3)O2)[C@H](C)C[C@@H]1C = 27.4
CCNC(=O)O[C@@H]1C=C[C@]2(O[C@H]([C@@H](CC)C(=O)[C@@H](C)[C@@H](O)[C@H](C)[C@@H]3O[C@@H]([C@@H](CC)C(=O)OCC(F)(F)F)CC[C@@H]3C)[C@@H](C)C[C@H]2C)O[C@@]12CC[C@@](C)([C@H]1CC[C@](O)(CC)[C@H](C)O1)O2 = 19.8
C#CCOC(=O)[C@H](CC)[C@H]1CC[C@H](C)[C@H]([C@@H](C)[C@H](O)[C@H](C)C(=O)[C@H](CC)[C@H]2O[C@]3(C=C[C@@H](OC(C)=O)[C@]4(CC[C@@](C)([C@H]5CC[C@](O)(CC)[C@H](C)O5)O4)O3)[C@H](C)C[C@@H]2C)O1 = 9.68
CCNC(=O)O[C@@H]1C=C[C@]2(O[C@H]([C@@H](CC)C(=O)[C@@H](C)[C@@H](O)[C@H](C)[C@@H]3O[C@@H]([C@@H](CC)C(=O)NCCc4ccc(F)cc4)CC[C@@H]3C)[C@@H](C)C[C@H]2C)O[C@@]12CC[C@@](C)([C@H]1CC[C@](O)(CC)[C@H](C)O1)O2 = 21.8
C#CCOC(=O)[C@H](CC)[C@H]1CC[C@H](C)[C@H]([C@@H](C)[C@H](O)[C@H](C)C(=O)[C@H](CC)[C@H]2O[C@]3(C=C[C@@H](O)[C@]4(CC[C@@](C)([C@H]5CC[C@](O)(CC)[C@H](C)O5)O4)O3)[C@H](C)C[C@@H]2C)O1 = 39.8

Now for the molecule whose Activity we want.
Query: Returns the measured Activity for the input molecule. Input: C#CCNC(=O)[C@H](CC)[C@H]1CC[C@H](C)[C@H]([C@@H](C)[C@H](O)[C@H](C)C(=O)[C@H](CC)[C@H]2O[C@]3(C=C[C@@H](OC(=O)NCC)[C@]4(CC[C@@](C)([C@H]5CC[C@](O)(CC)[C@H](C)O5)O4)O3)[C@H](C)C[C@@H]2C)O1
Response: 26.1

* * *

A collection of compounds and their measured Activity
# method_notes: Cell cycle arrest in human ALL5 cells assessed as accumulation at sub-G1 phase at 5 times antiproliferative IC50 after 96 hrs by propidium iodide staining based flow cytometry (reference value: 12%)
# Type: functional
Answer with the value and then the unit.

Query: Returns the measured Activity for the input compound. Input: C#CCOC(=O)[C@H](CC)[C@H]1CC[C@H](C)[C@H]([C@@H](C)[C@H](O)[C@H](C)C(=O)[C@H](CC)[C@H]2O[C@]3(C=C[C@@H](OC(=O)OCC)[C@]4(CC[C@@](C)([C@H]5CC[C@](O)(CC)[C@H](C)O5)O4)O3)[C@H](C)C[C@@H]2C)O1
Response: 19.8%

Query: Can you check COc1cccc2c1C(=O)c1c(O)c3c(c(O)c1C2=O)C[C@@](O)(C(=O)CO)C[C@@H]3O[C@H]1C[C@H](N)[C@H](O)[C@H](C)O1 [DOXORUBICIN] next?
Response: 62.7%

* * *

# method_notes: Selectivity index, ratio of IC50 for human MCF10A cells to IC50 for human LoVo/DX cells
# Assay type: toxicity
# assay_setup: MCF10A cells versus LoVo/DX cells, read-out: Ratio IC50
readout_name: selectivity ratio
Just the number, please, no unit after it.

Solved entries:
C#CCNC(=O)[C@H](CC)[C@H]1CC[C@H](C)[C@H]([C@@H](C)[C@H](O)[C@H](C)C(=O)[C@H](CC)[C@H]2O[C@]3(C=C[C@@H](OC(C)=O)[C@]4(CC[C@@](C)([C@H]5CC[C@](O)(CC)[C@H](C)O5)O4)O3)[C@H](C)C[C@@H]2C)O1 = 25
CCNC(=O)O[C@@H]1C=C[C@]2(O[C@H]([C@@H](CC)C(=O)[C@@H](C)[C@@H](O)[C@H](C)[C@@H]3O[C@@H]([C@@H](CC)C(=O)NCCc4ccc(F)cc4)CC[C@@H]3C)[C@@H](C)C[C@H]2C)O[C@@]12CC[C@@](C)([C@H]1CC[C@](O)(CC)[C@H](C)O1)O2 = 18

Now for the molecule whose selectivity ratio we want.
Query: Returns the measured selectivity ratio for the input molecule. Input: CCNC(=O)O[C@@H]1C=C[C@]2(O[C@H]([C@@H](CC)C(=O)[C@@H](C)[C@@H](O)[C@H](C)[C@@H]3O[C@@H]([C@@H](CC)C(=O)OCC(F)(F)F)CC[C@@H]3C)[C@@H](C)C[C@H]2C)O[C@@]12CC[C@@](C)([C@H]1CC[C@](O)(CC)[C@H](C)O1)O2
Response: 8
